# Test system: Escherichia coli TOP10;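 note: peptides expressed intracellularly from a pBAD plasmid library in pooled LB shake-flask culture, induced with 0.3% L-arabinose, DNA abundance read by NGS, three biological replicates, DESeq2 with apeglm shrinkage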
# PROTOCOL_NOTES: shrunken log2 fold change of peptide-encoding DNA abundance (4.5 h post-induction vs induction); higher = less antimicrobial activity (less host growth inhibition)
# CONDITION_SET: time post-induction: 4.5 h; library: site-saturation at positions 5, 18, 19, 20
READOUT_NAME: shrunken log2 fold change

Some solved entries appear below for comparison.
sequence_chain=RRIRVRPPRLPRPRPRPCFQPRP assay_value=-0.313
sequence_chain=RRIRDRPPRLPRPRPRPRRHPRP assay_value=0.172
sequence_chain=RRIRYRPPRLPRPRPRPKVMPRP assay_value=-0.296
sequence_chain=RRIRARPPRLPRPRPRPACGPRP assay_value=0.582
sequence_chain=RRIRHRPPRLPRPRPRPSEVPRP assay_value=-0.277
sequence_chain=RRIRERPPRLPRPRPRPFSQPRP assay_value=-0.347

Exam item: Look up and report measured shrunken log2 fold change (Escherichia coli TOP10) for the following sequence: `RRIRCRPPRLPRPRPRPCAQPRP`
Marked response: 0.101

Exam item: Jot down shrunken log2 fold change (Escherichia coli TOP10) of `RRIRCRPPRLPRPRPRPAHVPRP` .
Marked response: 0.019

Where these numbers come from: the supplement of paper PMC9112550
